Data origin, for the record: patent US9994570B2

Readings of Fold Selective for the listed compounds
- TESTED_TARGET: human orexin-2 receptor (Homo sapiens)
- Construct: expressed in transfected cells; host or cells: CHO cells (grown under G418 selection)
- Sequence (O43614 whole entry): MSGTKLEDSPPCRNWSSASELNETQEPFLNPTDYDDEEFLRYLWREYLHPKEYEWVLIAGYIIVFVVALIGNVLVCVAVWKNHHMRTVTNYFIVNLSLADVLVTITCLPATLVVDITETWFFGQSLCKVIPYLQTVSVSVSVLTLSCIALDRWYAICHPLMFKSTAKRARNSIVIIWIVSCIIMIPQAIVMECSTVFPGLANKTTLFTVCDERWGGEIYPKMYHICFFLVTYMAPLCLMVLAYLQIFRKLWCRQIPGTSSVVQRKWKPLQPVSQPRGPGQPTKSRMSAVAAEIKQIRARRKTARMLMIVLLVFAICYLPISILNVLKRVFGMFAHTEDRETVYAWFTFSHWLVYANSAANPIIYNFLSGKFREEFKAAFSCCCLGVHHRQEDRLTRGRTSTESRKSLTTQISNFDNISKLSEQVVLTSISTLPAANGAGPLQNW
- ASSAY_DETAILS: FLIPR Ca2+ flux assay, OX2R
- Format: cell-based
- CONDITION_LABEL: OX1R FLIPR / OX2R FLIPR
Reply: number alone, nothing else.

// solved cases for Fold Selective follow
{"columns": ["COMPOUND", "TESTED_TARGET", "Fold Selective"],
 "data": [
  ["Cc1cc(C)nc(N2CC3CC2CN(C(=O)c2ccccc2OC(F)F)C3)n1 (centres unmarked)", "human orexin-2 receptor (Homo sapiens)", 112],
  ["CSc1ccccc1C(=O)N1CC2CC(C1)N(c1nc(C)cc(C)n1)C2 (centres unmarked)", "human orexin-2 receptor (Homo sapiens)", 92]
]}

Value of measured Fold Selective for the entry Cc1cc(C)nc(N2CC3CC2CN(C(=O)c2ccccc2CC(F)F)C3)n1 (centres unmarked) : 139

Recorded result, Cc1cc(C)nc(N2CC3CC2CN(C(=O)c2ccccc2OC(F)(F)F)C3)n1 (centres unmarked) , Fold Selective: 51

Looking up Cc1cc(C)nc(N2CC3CC2CN(C(=O)c2ccccc2C2CC2)C3)n1 (centres unmarked) , I found its Fold Selective recorded as 47

----------
- TESTED_TARGET: rat orexin-1 receptor (Rattus norvegicus, UniProt P56718)
- Sequence (P56718 whole entry): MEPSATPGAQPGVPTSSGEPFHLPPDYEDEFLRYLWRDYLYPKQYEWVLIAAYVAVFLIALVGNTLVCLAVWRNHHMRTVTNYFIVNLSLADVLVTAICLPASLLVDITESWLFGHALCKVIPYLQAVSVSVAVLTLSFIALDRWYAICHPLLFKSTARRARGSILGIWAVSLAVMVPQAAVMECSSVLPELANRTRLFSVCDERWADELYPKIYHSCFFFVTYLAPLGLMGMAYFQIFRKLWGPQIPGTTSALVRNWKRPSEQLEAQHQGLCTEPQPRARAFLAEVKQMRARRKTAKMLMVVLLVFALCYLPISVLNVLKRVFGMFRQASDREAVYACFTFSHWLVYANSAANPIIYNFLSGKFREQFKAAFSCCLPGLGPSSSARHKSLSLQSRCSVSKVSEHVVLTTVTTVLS
- ASSAY_DETAILS: FLIPR Ca2+ flux assay, OX1R
- CONDITION_LABEL: CHO cells expressing the rat orexin-1 receptor; agonist 70 pM Ala-6,12 orexin-A
VALUE_KIND: pIC50
Formally, pIC50 is defined as -log10 of the concentration c, with c in mol/L.

Past entries and their recorded results:
{"columns": ["COMPOUND", "pIC50"],
 "data": [
  ["Cc1cc(C)nc(N2CC3CC2CN(C(=O)c2ccccc2CC(F)F)C3)n1 (centres unmarked)", 5.68],
  ["Cc1cc(C)nc(N2CC3CC2CN(C(=O)c2nccnc2-n2cccn2)C3)n1 (centres unmarked)", 5.47]
]}

Would you kindly look at the next entry?
Result for Cc1cc(C)nc(N2CC3CC2CN(C(=O)c2cccnc2OCC(C)C)C3)n1 (centres unmarked) , tested on rat orexin-1 receptor (Rattus norvegicus, UniProt P56718), pIC50: 6.19

----------
- TESTED_TARGET: rat orexin-1 receptor (Rattus norvegicus)
- Construct: expressed in transfected cells; host or cells: CHO cells (grown under G418 selection)
- ASSAY_DETAILS: FLIPR Ca2+ flux assay, OX1R
- Assay type: cell-based
- CONDITION_LABEL: CHO cells expressing the rat orexin-1 receptor; agonist 70 pM Ala-6,12 orexin-A
VALUE_KIND: pIC50
pIC50 is defined as minus the log10 of a concentration measured in mol/L.

{"columns": ["MOLECULE", "pIC50"],
 "data": [
  ["COCc1ccccc1C(=O)N1CC2CC(C1)N(c1nc(C)cc(C)n1)C2 (stereo not drawn)", 5.47],
  ["Cc1cc(C)nc(N2CC3CC2CN(C(=O)c2ccccc2CC(F)(F)F)C3)n1 (stereo not drawn)", 5.69]
]}

Input Cc1cc(C)nc(N2CC3CC2CN(C(=O)c2cc(F)ccc2C2CC2)C3)n1 (stereo not drawn) . Output pIC50: 5.99

pIC50 in this record for Cc1cc(C)nc(N2CC3CC2CN(C(=O)c2ccccc2OC(F)(F)F)C3)n1 (stereo not drawn) : 5.82

Per the records, this molecule ( Cc1cc(C)nc(N2CC3CC2CN(C(=O)c2ccccc2OCC(F)(F)F)C3)n1 (stereo not drawn) ) has pIC50 equal to 5.94

Entry Cc1cc(C)nc(N2CC3CC2CN(C(=O)c2nccnc2OCC(F)(F)C(F)F)C3)n1 (stereo not drawn) — recorded pIC50 = 5.57
